# Test system: Mycobacterium lufu
# method: In vitro inhibition of Mycobacterium lufu dihydopterate synthase.
readoutKind: pC

INSERT INTO results (smilesstructure, readoutkind, numericresult) VALUES
  ('N#Cc1cc(N)ccc1S(=O)(=O)c1ccc(N)cc1', 'pC', 5.65),
  ('COc1ccc(S(=O)(=O)c2ccc(N)cc2)cc1', 'pC', 5.12),
  ('Nc1ccc(S(=O)(=O)c2ccc(NCC(=O)O)cc2)cc1', 'pC', 6.06),
  ('Nc1ccc(S(=O)(=O)c2ccccc2)cc1', 'pC', 4.92),
  ('CCCNc1ccc(S(=O)(=O)c2ccc(N)cc2)c(O)c1', 'pC', 5.71),
  ('CCNc1ccc(S(=O)(=O)c2ccc(N)cc2)c(O)c1', 'pC', 6.14),
  ('CCCNc1ccc(S(=O)(=O)c2ccc(N)cc2)cc1OC', 'pC', 5.4),
  ('CCCNc1ccc(S(=O)(=O)c2ccc(N)cc2)c(OC)c1', 'pC', 5.92),
  ('CNc1ccc(S(=O)(=O)c2ccc(N)cc2)cc1', 'pC', 5.89),
  ('Nc1ccc(S(=O)(=O)c2ccc([N+](=O)[O-])cc2)cc1', 'pC', 4.51),
  ('Cc1ccc(S(=O)(=O)c2ccc(N)cc2)cc1', 'pC', 5.09);
